The reported numbers originate from patent US9149038B2.

Here, each record is paired with measured pest or weed control at 140 g/ha data.
- Tested on: Key Broadleaf Weed and Crop Species
- METHOD_SUMMARY: Post-Emergent Test II: postemergent herbicidal activity, visual rating after 14 d (Table 7)
- Format: in vivo
- ASSAY_SETUP: post-emergence, 336 h, sunflower (Helianthus annuus), 140 g ai/ha, read-out: Visual Growth Reduction (%) 14 Days After Application HELAN

{"MOLECULE": "C=Cc1c(C(=O)O)nc(-c2ccc3c(c2)OC(F)(F)O3)c(F)c1N [Compound 30]", "pest or weed control at 140 g/ha": "85 to 94%"}
{"MOLECULE": "COC(=O)c1nc(-c2ccc3c(c2)OC(F)(F)O3)c(C)c(N)c1Cl [Compound 49]", "pest or weed control at 140 g/ha": "95 to 100%"}
{"MOLECULE": "COC(=O)c1nc(-c2cc(OC)c3c(c2)OCO3)c(F)c(N)c1Cl [Compound 14]", "pest or weed control at 140 g/ha": "85 to 94%"}
{"MOLECULE": "COC(=O)c1nc(-c2cc3c(cc2F)OC(F)(F)O3)c(F)c(N)c1OC [Compound 22]", "pest or weed control at 140 g/ha": "85 to 94%"}
{"MOLECULE": "COC(=O)c1nc(-c2ccc3c(c2)OC(C)(C)O3)c(F)c(N)c1Cl [Compound 8]", "pest or weed control at 140 g/ha": "85 to 94%"}
